biological target: UniProt:P10275
Sequence (P10275 whole entry): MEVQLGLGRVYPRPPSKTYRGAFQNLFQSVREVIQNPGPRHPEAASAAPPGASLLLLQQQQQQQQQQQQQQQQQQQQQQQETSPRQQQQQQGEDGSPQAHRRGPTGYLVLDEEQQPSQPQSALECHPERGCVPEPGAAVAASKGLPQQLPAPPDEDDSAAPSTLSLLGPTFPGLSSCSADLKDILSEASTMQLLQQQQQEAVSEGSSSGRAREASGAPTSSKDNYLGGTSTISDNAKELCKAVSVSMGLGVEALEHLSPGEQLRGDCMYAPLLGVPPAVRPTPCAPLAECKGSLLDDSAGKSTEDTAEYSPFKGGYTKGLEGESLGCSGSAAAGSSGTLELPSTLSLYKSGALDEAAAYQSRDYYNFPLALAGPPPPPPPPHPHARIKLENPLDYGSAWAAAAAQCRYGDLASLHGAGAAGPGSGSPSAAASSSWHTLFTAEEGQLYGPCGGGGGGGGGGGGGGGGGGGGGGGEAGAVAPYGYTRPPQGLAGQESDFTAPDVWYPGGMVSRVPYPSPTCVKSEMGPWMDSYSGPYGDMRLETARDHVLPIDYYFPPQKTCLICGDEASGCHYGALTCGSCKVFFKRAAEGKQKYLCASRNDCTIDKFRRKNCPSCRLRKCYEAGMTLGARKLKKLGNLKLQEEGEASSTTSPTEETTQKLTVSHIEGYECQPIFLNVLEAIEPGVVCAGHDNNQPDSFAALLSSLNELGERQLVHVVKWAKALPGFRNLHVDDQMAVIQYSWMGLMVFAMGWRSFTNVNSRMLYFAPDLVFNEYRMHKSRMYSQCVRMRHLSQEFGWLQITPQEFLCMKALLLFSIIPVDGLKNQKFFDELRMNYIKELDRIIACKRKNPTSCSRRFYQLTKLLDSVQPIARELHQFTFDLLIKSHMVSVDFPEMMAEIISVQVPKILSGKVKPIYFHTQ
readout: pIC50
// scale note: pIC50 = -log10(conc_M); give the bare number

Some entries whose results are on file:
{"smiles_representation": "C[C@@H]1N(c2ccc(C#N)c(Cl)c2)CC[C@@]1(O)c1ccc(F)cc1", "readout": "pIC50", "value": 8.10}
{"smiles_representation": "CNC(=O)c1ccc([C@]2(O)CCN(c3ccc(C#N)cc3)[C@H]2C)cn1", "readout": "pIC50", "value": 5.12}
{"smiles_representation": "CNC(=O)c1ccc([C@]2(O)CCN(c3ccc(C#N)c(Cl)c3)[C@H]2C)cn1", "readout": "pIC50", "value": 7.36}
{"smiles_representation": "CNC(=O)c1ccc([C@]2(O)CCN(c3ccc(C#N)c(OC)c3)[C@H]2C)cn1", "readout": "pIC50", "value": 6.92}

Please look at the following molecule next.
Reported pIC50 (UniProt:P10275) for entry CNC(=O)c1ccc([C@]2(O)CCN(c3ccc(C#N)c(F)c3)[C@H]2C)cn1 is 6.08

Values were extracted from ChEMBL document CHEMBL2331321.
